# Assay: Cell Viability - LYMP2-018 (AID 985);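 further: compound exposure lasted 24 hr at 37 °C; nearly all actives have a fitted effect of over 50% in size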
# Assay context: LYMP2-018 lymphoblastoid cells, viability (qHTS); series mostly up to 92.2 µM
Results filed as inconclusive are left out. Active and inactive are the calls of the source. The call rests on the fitted dose curve; in most records, active means well fitted cell-killing curve with a large enough effect; inconclusive means small, poorly fitted or top-dose-only effect; inactive means flat fitted curve, though single readings scatter.
API: response.call in active, inactive

Ask: Record request — test call for "Oc1c(Br)cc(Br)cc1Br"
Result: inactive

Ask: # outcome recorded in this test, key = "CN(C)C(=S)SSC(=S)N(C)C"
Result: active

Ask: Check the results log: what was the call for "CC[n+]1c(-c2ccccc2)c2cc(N)ccc2c2ccc(N)cc21" ?
Result: active

Ask: How was "C[C@@H]1C[C@@H]([C@H](O)CC2CC(=O)NC(=O)C2)C(=O)[C@@H](C)C1" classified in this test?
Result: active

Ask: // param item: "O=C(CCl)c1ccc(Cl)cc1Cl" ; yields the recorded call
Result: active

Ask: What was the test verdict on "CCCCCCCCCCCC[N+](C)(C)CCOc1ccccc1" ?
Result: active

Ask: // param item: "COP(=O)(OC)OC=C(Cl)Cl" ; yields the recorded call
Result: inactive

---

# System: MKL-2
# Assay: qHTS assay to identify novel small-molecules to repurpose for Merkel cell carcinoma treatment (AID 1296009); further: nearly all actives have a fitted effect of over 60% in size
# Assay context: MCC and control cell lines, CellTiter-Glo viability, 72 h; series mostly up to 46 µM
# Description: MCC is a rare and aggressive neuroendocrine skin cancer with limited treatment options. Approximately 80% of MCCs have the Merkel cell polyomavirus (MCPyV) DNA integrated into the host genome (virus-positive: VP-MCC) and viral oncogenes drive oncogenesis. The remaining MCCs are virus-negative (VN-MCC) and are caused by UV mutagenesis. […] Using cell viability as a readout (CellTiter-Glo assay) we found both overlapping and distinct drugs that can be repurposed for the treatment of VP-MCC and VN-MCC. […]
Inconclusive results are not listed. The source made the active and inactive calls. Calls follow the shape of the dose curve; as a rule, active = well fitted inhibition curve with a large enough effect; inconclusive = small, poorly fitted or top-dose-only effect; inactive = flat fitted curve, though single readings scatter.
Please answer using one outcome listed in 1 = active, 0 = inactive

Ask: Per the assay record, what outcome was assigned to COc1ccc(OC)c(CC(C)N)c1 (stereo unspecified) ?
Result: 0

Ask: Recorded call for CCOC(=O)NC(O)C(Cl)(Cl)Cl (stereo unspecified) ?
Result: 0

Ask: For Clc1ccc(C(OCCN2CCCCC2)c2ccccc2)cc1 (stereo unspecified) , what call appears in the results of this test?
Result: 0

Ask: Identify the outcome logged in this assay for the compound shown: CCOC(=O)c1cncn1C(C)c1ccccc1 (stereo unspecified)
Result: 0

Ask: Record request — test call for "COc1ccc(CN2CCNCC2)c(OC)c1OC"
Result: 0

Ask: I would be grateful if you could indicate the recorded call for "C[C@@H]1C[C@@H]([C@H](O)CC2CC(=O)NC(=O)C2)C(=O)[C@@H](C)C1" .
Result: 1

Ask: In this assay, the call recorded for "C[C@]12CC[C@H]3[C@@H](CCC4=CC(=O)CC[C@@]43C)[C@@H]1CC[C@@H]2C(=O)O" was what?
Result: 0

Ask: Which result was noted for this compound in the test: CCN1CCCC1CNC(=O)C(O)(c1ccccc1)c1ccccc1 (stereo unspecified)
Result: 0

Ask: Could you check what this test reported for CNC(=O)NC(O)C(Cl)(Cl)Cl (stereo unspecified) ?
Result: 0

Ask: # fetch the recorded call for "Cc1ccc([N+](=O)[O-])[c]2c1[O][Hg]2" here
Result: 1

Ask: Tell me the assay call for "CN1C(=O)[C@@H](NC(=O)c2cc3ccccc3[nH]2)N=C(c2ccccc2)c2ccccc21" please.
Result: 0

Ask: # fetch the recorded call for "C[C@H]1CNCCc2ccc(Cl)cc21" here
Result: 0

Ask: So what was the verdict on CN1[C@@H]2CC[C@H]1CC(OC(=O)c1cc(Cl)cc(Cl)c1)C2 (stereo partly specified) in this test?
Result: 0

Ask: Each compound tested received a call. Report the one for "C[N+]1(CCC(C(N)=O)(c2ccccc2)c2ccccc2)CCCCC1" .
Result: 0

Ask: # outcome recorded in this test, key = "CN1C(=O)CN=C(c2ccccc2)c2cc([N+](=O)[O-])ccc21"
Result: 0

Ask: Per the assay record, what outcome was assigned to "c1ccc2nc(N3CCNCC3)ccc2c1" ?
Result: 0

Ask: Just curious, what result did "Cc1c(Cl)c(=O)oc2cc(OP(=O)(OCCCl)OCCCl)ccc12" get here?
Result: 0

Ask: What did the test return for "CCOC(=O)C1(c2ccccc2)CCN(CCc2ccc(N)cc2)CC1" ?
Result: 0

Ask: Recorded call for "Nc1ccc(N)cc1" ?
Result: 0

Ask: Could you please tell me the result logged for "NCc1cccnc1" in this assay?
Result: 0

Ask: For "CC(C)=C[C@@H]1[C@@H](C(=O)OCc2coc(Cc3ccccc3)c2)C1(C)C" , which call appears in the assay record?
Result: 0

Ask: Could you check what this test reported for "CN1C(=O)CN=C(c2ccccc2)c2cc(Cl)ccc21" ?
Result: 0

Ask: What is the recorded call for this compound in the test? COc1cc(N)c(Cl)cc1C(=O)NC1CN2CCC1CC2 (stereo unspecified)
Result: 0

Ask: Hi team, can someone confirm the assay call for "C[C@H](CN1CCOCC1)C(C(=O)N1CCCC1)(c1ccccc1)c1ccccc1" ?
Result: 0

Ask: Outcome logged for "COP(=O)(OC)OC=C(Cl)Cl" in this assay:
Result: 0

Ask: Called result for "OC(c1ccccc1)(c1ccccc1)C1CCNCC1"
Result: 0
